Data provenance: ChEMBL document CHEMBL4706579

Provide the recorded Activity for the entries that follow.
- tested-target: Transcriptional regulator MvfR (Pseudomonas aeruginosa PA14)
- Sequence (whole entry): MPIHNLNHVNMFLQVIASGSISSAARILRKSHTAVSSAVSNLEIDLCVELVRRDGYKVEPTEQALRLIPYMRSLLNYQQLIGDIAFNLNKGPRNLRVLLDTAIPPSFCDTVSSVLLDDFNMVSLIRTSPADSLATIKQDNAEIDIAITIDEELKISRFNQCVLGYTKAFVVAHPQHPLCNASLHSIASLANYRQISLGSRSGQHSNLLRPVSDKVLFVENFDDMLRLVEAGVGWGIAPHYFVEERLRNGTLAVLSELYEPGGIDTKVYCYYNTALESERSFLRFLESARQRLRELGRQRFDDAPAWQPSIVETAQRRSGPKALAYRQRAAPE
- assay-method-text: Inhibition of PqsR in Pseudomonas aeruginosa PAO1 L harboring mCTX:PpqsA-lux fusion protein assessed as remaining enzyme activity at 10 uM and measured every 30 mins for 24 hrs by spot test relative to control
Just the number in %, nothing appended.

The molecule identified as CCc1nc(Cn2cnc3ccc(Cl)cc3c2=O)cs1 registered its Activity at 79

The molecule identified as CCCCNc1ncc(Cn2cnc3ccc(Cl)cc3c2=O)s1 registered its Activity at 67

The molecule identified as O=c1c2cc(Cl)ccc2ncn1Cc1cnc(Cl)s1 registered its Activity at 95

---

- tested-target: Transcriptional regulator MvfR (Pseudomonas aeruginosa PA14)
- assay-method-text: Inhibition of PqsR in Pseudomonas aeruginosa PA14 harboring mCTX:PpqsA-lux fusion protein measured every 30 mins for 24 hrs by luminescence reporter gene assay
Provide the recorded IC50 for the entries that follow.
Just the number in µM, nothing appended.

The compound identified as CC(C)Cc1nc(Cn2cnc3ccc(Cl)cc3c2=O)cs1 registered its IC50 at 1.33

The compound identified as CCCCCCc1nc(Cn2cnc3ccc(Cl)cc3c2=O)cs1 registered its IC50 at 0.265

The compound identified as CC(C)CCc1nc(Cn2cnc3ccc(Cl)cc3c2=O)cs1 registered its IC50 at 0.683

The compound identified as CCC(C)Cc1nc(Cn2cnc3ccc(Cl)cc3c2=O)cs1 (configuration not stated) registered its IC50 at 0.639

The compound identified as CC(C)c1nc(Cn2cnc3ccc(Cl)cc3c2=O)cs1 registered its IC50 at 1.58

The compound identified as CCCCCc1nc(Cn2cnc3ccc(Cl)cc3c2=O)cs1 registered its IC50 at 0.342

The compound identified as O=c1c2cc(Cl)ccc2ncn1Cc1csc(-c2ccco2)n1 registered its IC50 at 1.31

The compound identified as O=c1c2cc(Cl)ccc2ncn1Cc1csc(-c2ccccc2)n1 registered its IC50 at 0.123

The compound identified as O=c1c2cc(Cl)ccc2ncn1Cc1csc(/C=C/c2ccco2)n1 registered its IC50 at 2.92

The compound identified as CCCC(C)c1nc(Cn2cnc3ccc(Cl)cc3c2=O)cs1 (configuration not stated) registered its IC50 at 0.646

The compound identified as CC(C)(C)c1nc(Cn2cnc3ccc(Cl)cc3c2=O)cs1 registered its IC50 at 0.65

The compound identified as CCCCc1nc(Cn2cnc3ccc(Cl)cc3c2=O)cs1 registered its IC50 at 1.72

---

Provide the recorded Activity for the entries that follow.
- tested-target: Transcriptional regulator MvfR (Pseudomonas aeruginosa PA14) (UniProt A0A072ZLE6)
- assay-method-text: Inhibition of PqsR in Pseudomonas aeruginosa PAO1 L harboring mCTX:PpqsA-lux fusion protein assessed as remaining enzyme activity at 10 uM and measured every 30 mins for 24 hrs by spot test relative to control

The compound identified as COCCNc1ncc(Cn2cnc3ccc(Cl)cc3c2=O)s1 registered its Activity at 85%

The compound identified as CN(CCO)c1ncc(Cn2cnc3ccc(Cl)cc3c2=O)s1 registered its Activity at 101%

The compound identified as CCCCCc1nc(Cn2cnc3cc(Cl)ccc3c2=O)cs1 registered its Activity at 106%

The compound identified as O=c1c2cc(Cl)ccc2ncn1Cc1csc(-c2ccc([N+](=O)[O-])cc2)n1 registered its Activity at 89%

The compound identified as CC(C)c1ncc(Cn2cnc3ccc(Cl)cc3c2=O)s1 registered its Activity at 65%

The compound identified as Cc1nc(Cn2cnc3ccc(Cl)cc3c2=O)cs1 registered its Activity at 83%

The compound identified as CC1CCN(c2ncc(Cn3cnc4ccc(Cl)cc4c3=O)s2)CC1 registered its Activity at 72%

The compound identified as COCCNc1nc(Cn2cnc3ccc(Cl)cc3c2=O)cs1 registered its Activity at 85%

The compound identified as O=c1c2cc(Cl)ccc2ncn1Cc1cnc(NC2CCCCC2)s1 registered its Activity at 83%

The compound identified as N#CCc1nc(Cn2cnc3ccc(Cl)cc3c2=O)cs1 registered its Activity at 104%

The compound identified as NC(N)=Nc1nc(Cn2cnc3ccc(Cl)cc3c2=O)cs1 registered its Activity at 108%

The compound identified as O=c1c2cc(Cl)ccc2ncn1Cc1csc(C(F)(F)F)n1 registered its Activity at 52%
